Biological target: T1, cynomolgus monkey CLL1 ECD (65-265) (cynomolgus monkey)
T1 construct: Expressed in 293-F cells and purified by IMAC; also called cynoCLL1; recombinant cynomolgus monkey CLL1 protein
T1 chain: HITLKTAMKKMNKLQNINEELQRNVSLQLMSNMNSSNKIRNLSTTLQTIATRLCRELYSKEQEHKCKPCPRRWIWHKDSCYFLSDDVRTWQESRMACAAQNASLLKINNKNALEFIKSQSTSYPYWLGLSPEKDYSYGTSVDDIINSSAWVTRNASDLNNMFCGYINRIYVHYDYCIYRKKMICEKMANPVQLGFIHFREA
Assay: SPR (Biacore T200), sdAb supernatant, recombinant cynomolgus CLL1
observation-type: Kd (nM)
Give a bare numeral; the unit nM is implied.

binder	value-reported
AS82494 sdAb (VHH, Camel sdAb tested as E. coli culture supernatant; not shown: C-terminal His-tag encoded by the soluble expression vector) VHH: QVQLVESGGGLVQPGGSLRLSCAASGFTFSVYDMNWFRQAPGKGLEWVSGITGNGYTTSYADSVKGRFTISRDNAKNTLYLQLNSLKSEDTAMYYCAKETNRGQGTQVTVSS	98

Pending binder:
Kd in this record for AS83478 sdAb (VHH, Camel sdAb tested as E. coli culture supernatant; not shown: C-terminal His-tag encoded by the soluble expression vector) VHH: QVHLMESGGGLVQPGESLRLSCAASGFIFANYEMSWVRQAPGKVLEWVSGINSRGNATYYADSVKGRFTISRDNAEHTLYLQMNSLKPEDTAMYHCVVGGMTTDQGSPDFYWGQGTQVTVSS : 1.4
